Measured values drawn from patent US20200317817A1 for this set.

Target: T1, human PTH1R overexpressed on CHO cells (human, UniProt Q03431 27-593)
T1 sequence (looked up): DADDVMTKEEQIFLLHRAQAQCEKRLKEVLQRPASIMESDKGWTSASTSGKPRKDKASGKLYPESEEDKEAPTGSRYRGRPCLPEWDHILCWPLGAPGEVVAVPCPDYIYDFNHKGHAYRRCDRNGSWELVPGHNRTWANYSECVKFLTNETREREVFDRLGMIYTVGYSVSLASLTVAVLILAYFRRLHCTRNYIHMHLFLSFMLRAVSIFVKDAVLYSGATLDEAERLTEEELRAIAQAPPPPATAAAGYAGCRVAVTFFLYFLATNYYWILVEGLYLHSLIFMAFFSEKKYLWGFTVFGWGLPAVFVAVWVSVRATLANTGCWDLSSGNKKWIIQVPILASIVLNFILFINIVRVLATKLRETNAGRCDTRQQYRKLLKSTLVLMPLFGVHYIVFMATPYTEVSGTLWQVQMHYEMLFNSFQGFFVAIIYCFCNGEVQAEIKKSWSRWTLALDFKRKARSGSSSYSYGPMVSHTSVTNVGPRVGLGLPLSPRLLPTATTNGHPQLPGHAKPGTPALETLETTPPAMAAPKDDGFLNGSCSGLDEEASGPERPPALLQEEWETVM
Experiment: cell-based or functional assay
parameter-measured: EC50 of PTH(1-34), cAMP assay, with 267 nM IgG (pM)
Respond numerically; units are pM and should not be typed.

Task item: Tell us which EC50 of PTH(1-34), cAMP assay, with 267 nM IgG value is on record for XPA.85.287 (antibody, V domains shown, also called Ab287) VH: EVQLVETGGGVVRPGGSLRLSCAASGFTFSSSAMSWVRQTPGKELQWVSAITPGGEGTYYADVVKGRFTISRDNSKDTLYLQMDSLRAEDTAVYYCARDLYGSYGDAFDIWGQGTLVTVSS VL: SYVLTQPPSVSVAPGQTARITCSGDKLGDRYVSWYQQKPGQSPVLVMFEDTGRPAGIPERFSGSNSGNTATLTISGTQAEDEADYYCQAWGTSWVFGGGTQLTVL
Reply: 908

Task item: Tell us which EC50 of PTH(1-34), cAMP assay, with 267 nM IgG value is on record for XPA.85.338 (antibody, V domains shown, Light-chain-shuffled variant of XPA.85.017) VH: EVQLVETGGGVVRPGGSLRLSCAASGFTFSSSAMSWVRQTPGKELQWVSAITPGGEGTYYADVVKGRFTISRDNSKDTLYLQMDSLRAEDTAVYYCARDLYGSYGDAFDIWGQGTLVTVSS VL: SYELTQPPSVSVAPGQTATITCSGDKLGDKYASWYQQKPGQSPVLVMFENRDRPSGIPDRFSGSNSGNTATLTISGTQAMDEADYYCQAWDSSTAWVFGGGTQLTVL
Reply: 244

Task item: Tell us which EC50 of PTH(1-34), cAMP assay, with 267 nM IgG value is on record for XPA.85.336 (antibody, V domains shown, Light-chain-shuffled variant of XPA.85.017) VH: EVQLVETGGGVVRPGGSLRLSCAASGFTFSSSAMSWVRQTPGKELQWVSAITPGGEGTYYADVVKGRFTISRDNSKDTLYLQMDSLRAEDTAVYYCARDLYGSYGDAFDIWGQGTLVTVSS VL: QSVLTQPPSVSAAPGQKVTISCSGTGSNIGSNYVAWYQQLPGTAPKLLIYDDNKRPSGTPDRFSGSKSGTSATLVIAGLQTGDEADYYCGTWDNTLNVGGVFGGGTQLTVL
Reply: 18.1

Task item: Tell us which EC50 of PTH(1-34), cAMP assay, with 267 nM IgG value is on record for XPA.85.341 (antibody, V domains shown, Light-chain-shuffled variant of XPA.85.017) VH: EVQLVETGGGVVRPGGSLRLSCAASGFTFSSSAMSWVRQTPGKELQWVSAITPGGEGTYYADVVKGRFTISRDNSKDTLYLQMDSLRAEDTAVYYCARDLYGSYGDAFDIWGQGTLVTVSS VL: SYELTQPSSVSVSPGQTASITCSGDKLGEKYASWYQQKPGQSPVLVMFEDTKRPSGIPERFSGSNSGNTATLTISGTQAEDEADYYCQAWDSSWVFGGGTQLTVL
Reply: 404
